Target: FXR ligand binding domain (GST-FXR LBD fusion protein, human FXR aa 193-473) (Homo sapiens, UniProt Q96RI1)
Sequence (Q96RI1 193-472 isoform Q96RI1-2 limits assumed): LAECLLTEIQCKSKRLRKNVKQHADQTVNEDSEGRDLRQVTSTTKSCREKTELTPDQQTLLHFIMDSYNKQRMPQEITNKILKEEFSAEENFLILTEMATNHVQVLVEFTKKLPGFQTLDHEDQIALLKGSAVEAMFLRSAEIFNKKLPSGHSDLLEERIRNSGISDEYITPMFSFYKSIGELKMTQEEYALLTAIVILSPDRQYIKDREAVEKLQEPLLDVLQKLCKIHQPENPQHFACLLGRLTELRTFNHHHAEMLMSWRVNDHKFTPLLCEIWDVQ
Experiment: Radioligand binding assay (radioligand displacement, scintillation proximity)
Details: 40 nM GST-FXR LBD on SPA beads, radioligand 2,N-dicyclohexyl-2-[2-(2,4 dimethoxy-phenyl)-benzoimidazol-1-yl]-acetamide, RT 30 minutes
Value Type: log10 IC50 (log10 of the value in nM)
Values reflect log10 of reported IC50 (nM).

Chem Smiles: O=C(O)c1ccc(NC(=O)N(Cc2ccccc2)c2c3ccccc3nn2-c2ccc(Cl)cc2)c(Cl)c1
log10 IC50: 3.03

Chem Smiles: O=C(N[C@H]1CC[C@H](O)CC1)N(c1cccc(Cl)c1)c1c2ccccc2nn1-c1ccc(Cl)cc1
log10 IC50: 2.48

Chem Smiles: COCCN(C(=O)NC1CCCCC1)c1c2ccccc2nn1-c1ccc(Cl)cc1
log10 IC50: 3.37

Chem Smiles: O=C(NC1CCCCC1)N(c1ccc(F)c(Cl)c1)c1c2ccccc2nn1-c1ccc(Cl)cc1
log10 IC50: 1.85

Chem Smiles: O=C(Nc1ccccc1F)N(c1c2ccccc2nn1-c1ccccc1)C1CCCCC1
log10 IC50: 2.92

Given the molecule O=C(NC1CCCCC1)N(c1cccc(Cl)c1)c1c2ccc(F)cc2nn1-c1ccc(Cl)cc1 , what is its reported log10 IC50?
2.00

Need log10 IC50 of O=C(NC1CCCCC1)N(c1c2ccc(F)cc2nn1-c1ccc(Cl)cc1)C1CCCCC1 , thanks.
1.30

Param item = O=C(NC1CCCCC1)N(c1c2ccccc2nn1-c1ccccc1)C1CCCCC1 ; retrieve measured log10 IC50.
1.60
